Across several studies, molecules have been characterized by their Ki on D(2) dopamine receptor (Homo sapiens); a selection follows.
Sequence (P14416 whole entry): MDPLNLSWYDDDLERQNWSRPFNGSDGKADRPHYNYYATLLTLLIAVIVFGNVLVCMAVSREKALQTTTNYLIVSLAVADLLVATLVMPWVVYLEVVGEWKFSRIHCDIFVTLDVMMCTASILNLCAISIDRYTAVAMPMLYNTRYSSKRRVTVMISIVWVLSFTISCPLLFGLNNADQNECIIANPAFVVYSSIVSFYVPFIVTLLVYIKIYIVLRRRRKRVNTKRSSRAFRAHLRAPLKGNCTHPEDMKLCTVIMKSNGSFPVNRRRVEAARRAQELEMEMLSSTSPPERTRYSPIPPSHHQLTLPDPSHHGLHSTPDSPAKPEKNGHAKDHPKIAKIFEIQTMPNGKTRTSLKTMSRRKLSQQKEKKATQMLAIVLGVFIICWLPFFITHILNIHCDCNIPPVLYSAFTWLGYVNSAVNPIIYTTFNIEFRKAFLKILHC

Worked cases, Ki given:
O=C1c2ccccc2S(=O)(=O)N1CCCCCN1CCN(c2ccccc2)CC1 :: 165 nM
CCCN1CCO[C@@H]2c3cc(C(=O)O)ccc3CC[C@H]21 :: > 10000 nM
O=C1c2cccc3cccc(c23)N1CCCCCCN1CCN(c2ccc(Cl)c(Cl)c2)CC1 :: 246 nM
O=S1(=O)c2cccc3cccc(c23)N1CCCCCCN1CCN(c2ccc(C(F)(F)F)cc2)CC1 :: 927 nM

[Q] Observed Ki on D(2) dopamine receptor (Homo sapiens) for COc1ccc2onc(N3CCN(CCCCNC(=O)c4ccc5nonc5c4)CC3)c2c1 , please.
[A] > 750 nM
